# CC50 listing for each entry below
- System: JIMT-1
- procedure.details: MTS cell viability assay, 48 h
- Format: cell-based, human
- test.conditions: Homo sapiens; JIMT-1, 48 h, MTS; read-out: CC50
# value in µM; strip the unit string

Below, each entry is followed by its recorded CC50 result.
• CCCCCCCCCCCCCCCCOCC(CN)OC1OC(C)C(O)C(O)C1O (stereo not shown) [Compound 3] = 5.5
• CCCCCCCCCCCCCCCCOCC(CN)OC1OC(CN)C(O)C(O)C1O (stereo not shown) [Compound 6] = 12.5

# context switch: different compound, same CC50
Simply: CCCCCCCCCCCCCCCCOCC(CNC(=O)CCc1ccc(O)cc1)O[C@@H]1O[C@@H](C)[C@H](O)[C@@H](O)[C@H]1O (stereo partly shown) [Compound 4] , JIMT-1, CC50 = 25

---

- System: human epithelial cancer cell lines: breast (MDA-MB-231, JIMT-1), pancreas (MiaPaCa2) and prostate (DU-145, PC-3)
- procedure.details: MTS cell viability assay, 48 h, across the panel of cell lines
- Format: cell-based
- test.conditions: range or bound over all cell lines, 48 h, MTS; read-out: CC50 values across the cell lines
measure.name: CC50

// CC50 lookup, compound = CCCCCCCCCCCCCCCCOCC(CN)OC1OC(C)C(O)C(O)C1O (stereo not shown) , result: 4.8 to 11 µM

---

Entries and their CC50 values follow.
- Test system: DU-145
- procedure.details: MTS cell viability assay, 48 h
- Type: cell-based, human
- test.conditions: Homo sapiens; DU-145, 48 h, MTS; read-out: CC50
A number alone suffices; assume µM.

Recorded CC50, per entry:
• CCCCCCCCCCCCCCCCOCC(CN)OC1OC(CN)C(O)C(O)C1O (stereo not shown) = 17.5
• CCCCCCCCCCCCCCCCOCC(CNC(=O)CCc1ccc(O)cc1)O[C@@H]1O[C@@H](C)[C@H](O)[C@@H](O)[C@H]1O (stereo partly shown) = 30

Kindly consider the entry below.
What the record says about CCCCCCCCCCCCCCCCOCC(CN)OC1OC(C)C(O)C(O)C1O (stereo not shown) : CC50 is 8.2
